- SYSTEM NAME: HIV-1 JR-CSF Env N332A (HIV-1 isolate JR-CSF) (UniProt P20871)
- ASSAY: cell-based or functional assay
Quick reference: Fold IC50 increase relative to wild-type of the listed items.
QUANTITY MEASURED: Fold IC50 increase relative to wild-type

- PGT-126 (antibody, V domains shown) VH: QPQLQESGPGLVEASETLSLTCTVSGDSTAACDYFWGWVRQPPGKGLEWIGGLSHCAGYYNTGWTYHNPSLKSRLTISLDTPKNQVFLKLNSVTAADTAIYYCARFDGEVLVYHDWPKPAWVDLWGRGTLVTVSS VL: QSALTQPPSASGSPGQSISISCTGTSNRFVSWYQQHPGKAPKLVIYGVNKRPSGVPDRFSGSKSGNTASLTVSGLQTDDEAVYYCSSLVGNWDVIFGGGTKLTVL: 181 fold
- PGT-131 (antibody, V domains shown) VH: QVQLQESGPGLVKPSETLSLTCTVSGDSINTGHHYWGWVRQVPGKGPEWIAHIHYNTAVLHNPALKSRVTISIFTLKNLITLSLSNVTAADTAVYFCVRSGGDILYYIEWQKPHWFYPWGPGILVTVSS VL: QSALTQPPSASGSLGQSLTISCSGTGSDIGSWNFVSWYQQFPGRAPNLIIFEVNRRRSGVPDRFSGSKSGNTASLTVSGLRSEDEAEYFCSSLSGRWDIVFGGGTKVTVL: 0.5 fold
- PGT-128 (antibody, V domains shown) VH: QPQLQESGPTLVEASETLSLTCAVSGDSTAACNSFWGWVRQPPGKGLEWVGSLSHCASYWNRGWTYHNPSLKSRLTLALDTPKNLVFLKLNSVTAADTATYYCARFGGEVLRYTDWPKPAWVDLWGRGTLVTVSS VL: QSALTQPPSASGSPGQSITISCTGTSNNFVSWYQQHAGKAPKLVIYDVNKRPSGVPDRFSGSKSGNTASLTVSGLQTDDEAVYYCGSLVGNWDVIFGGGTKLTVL: 1.4 fold
